// provenance: patent US20020107302A1

test: Solubility or dispersibility of monomeric dye in vehicle systems; conditions: Methyl ethyl ketone; 600 ppm dye

compound	Solubility or Dispersibility
CCN1C(=CCC2CCC(C=CC3Sc4ccc(Cl)cc4N3CC)=C2N(c2ccccc2)c2ccccc2)Sc2ccc(Cl)cc21 (stereo not shown)	Soluble
CN1C(=CC=CC=CC=CC2=[N+](C)c3ccc4ccccc4c3C2(C)C)C(C)(C)c2c1ccc1ccccc21.[O-][Cl+3]([O-])([O-])[O-]	Soluble
COC(=O)c1cc([O][Al]2[n]3c4c5ccccc5c3/N=C3N=C(/N=c5/c6ccccc6/c([n]52)=N/C2=NC(=N\4)/c4ccccc42)c2ccccc2\3)cc(C(=O)OC)c1	Partially Soluble
CCCCC(CC)COC(=O)c1ccc(Oc2cccc3c2-c2nc-3nc3[nH]c(nc4nc(nc5[nH]c(n2)c2cccc(Oc6ccc(C(=O)OCC(CC)CCCC)cc6)c52)-c2cccc(Oc5ccc(C(=O)OCC(CC)CCCC)cc5)c2-4)c2cccc(Oc4ccc(C(=O)OCC(CC)CCCC)cc4)c32)cc1 (stereo not shown)	Partially Soluble

----------
assay: Solubility or dispersibility of monomeric dye in vehicle systems; conditions: Acetone; 600 ppm dye

compound	Solubility or Dispersibility
COC(=O)c1cc([O][Al]2[n]3c4c5ccccc5c3/N=C3N=C(/N=c5/c6ccccc6/c([n]52)=N/C2=NC(=N\4)/c4ccccc42)c2ccccc2\3)cc(C(=O)OC)c1	Partially Soluble
CN1C(=CC=CC=CC=CC2=[N+](C)c3ccc4ccccc4c3C2(C)C)C(C)(C)c2c1ccc1ccccc21.[O-][Cl+3]([O-])([O-])[O-]	Soluble
CCN1C(=CCC2CCC(C=CC3Sc4ccc(Cl)cc4N3CC)=C2N(c2ccccc2)c2ccccc2)Sc2ccc(Cl)cc21 (stereo not shown)	Soluble
CCCCC(CC)COC(=O)c1ccc(Oc2cccc3c2-c2nc-3nc3[nH]c(nc4nc(nc5[nH]c(n2)c2cccc(Oc6ccc(C(=O)OCC(CC)CCCC)cc6)c52)-c2cccc(Oc5ccc(C(=O)OCC(CC)CCCC)cc5)c2-4)c2cccc(Oc4ccc(C(=O)OCC(CC)CCCC)cc4)c32)cc1 (stereo not shown)	Partially Soluble

----------
assay: Solubility or dispersibility of monomeric dye in vehicle systems; details: Ethanol; 600 ppm dye

molecule	Solubility or Dispersibility
CCN1C(=CCC2CCC(C=CC3Sc4ccc(Cl)cc4N3CC)=C2N(c2ccccc2)c2ccccc2)Sc2ccc(Cl)cc21 (stereo not shown)	Soluble
CN1C(=CC=CC=CC=CC2=[N+](C)c3ccc4ccccc4c3C2(C)C)C(C)(C)c2c1ccc1ccccc21.[O-][Cl+3]([O-])([O-])[O-]	Soluble
COC(=O)c1cc([O][Al]2[n]3c4c5ccccc5c3/N=C3N=C(/N=c5/c6ccccc6/c([n]52)=N/C2=NC(=N\4)/c4ccccc42)c2ccccc2\3)cc(C(=O)OC)c1	Soluble

----------
test: Solubility or dispersibility of monomeric dye in vehicle systems; conditions: Methyl acetate; 600 ppm dye

molecule	Solubility or Dispersibility
CN1C(=CC=CC=CC=CC2=[N+](C)c3ccc4ccccc4c3C2(C)C)C(C)(C)c2c1ccc1ccccc21.[O-][Cl+3]([O-])([O-])[O-]	Soluble
CCCCC(CC)COC(=O)c1ccc(Oc2cccc3c2-c2nc-3nc3[nH]c(nc4nc(nc5[nH]c(n2)c2cccc(Oc6ccc(C(=O)OCC(CC)CCCC)cc6)c52)-c2cccc(Oc5ccc(C(=O)OCC(CC)CCCC)cc5)c2-4)c2cccc(Oc4ccc(C(=O)OCC(CC)CCCC)cc4)c32)cc1 (stereo not shown)	Soluble

----------
assay: Solubility or dispersibility of monomeric dye in vehicle systems; settings: Ethyl acetate; 600 ppm dye

compound	Solubility or Dispersibility
CCCCC(CC)COC(=O)c1ccc(Oc2cccc3c2-c2nc-3nc3[nH]c(nc4nc(nc5[nH]c(n2)c2cccc(Oc6ccc(C(=O)OCC(CC)CCCC)cc6)c52)-c2cccc(Oc5ccc(C(=O)OCC(CC)CCCC)cc5)c2-4)c2cccc(Oc4ccc(C(=O)OCC(CC)CCCC)cc4)c32)cc1 (stereo not shown)	Soluble
CN1C(=CC=CC=CC=CC2=[N+](C)c3ccc4ccccc4c3C2(C)C)C(C)(C)c2c1ccc1ccccc21.[O-][Cl+3]([O-])([O-])[O-]	Soluble

----------
assay: Solubility or dispersibility of monomeric dye in vehicle systems; details: 50/50 acetone/water; 600 ppm dye

molecule	Solubility or Dispersibility
CCN1C(=CCC2CCC(C=CC3Sc4ccc(Cl)cc4N3CC)=C2N(c2ccccc2)c2ccccc2)Sc2ccc(Cl)cc21 (stereo not shown) [Dye V]	Soluble
CN1C(=CC=CC=CC=CC2=[N+](C)c3ccc4ccccc4c3C2(C)C)C(C)(C)c2c1ccc1ccccc21.[O-][Cl+3]([O-])([O-])[O-] [Dye IV]	Soluble
